- SYSTEM_NAME: KRAS G12V (Homo sapiens, UniProt P01116, G12V)
- Construct: SW620-KRAS (G12V)-HiBit-KI cell (Pharmaron); host or cells: SW620-KRAS (G12V)-HiBit-KI cells (HiBiT knock-in at the endogenous KRAS locus)
- Sequence (P01116 1-188 isoform P01116-2 G12V): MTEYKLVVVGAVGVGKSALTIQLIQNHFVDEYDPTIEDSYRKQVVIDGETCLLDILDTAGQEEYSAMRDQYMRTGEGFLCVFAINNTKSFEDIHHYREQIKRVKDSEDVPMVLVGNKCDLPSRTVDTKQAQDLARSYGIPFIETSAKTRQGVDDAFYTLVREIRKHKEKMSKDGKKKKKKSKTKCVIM
- ASSAY_OVERVIEW: KRAS G12V HiBit assay
- Type: cell-based
- CONDITION_CONTEXT: SW620-KRAS (G12V)-HiBit-KI cells, compound treatment for 24 hours, class symbols
For each of the molecules below, state its DC50.

Look over these answered cases.
| MOLECULE | SYSTEM_NAME | DC50 |
| --- | --- | --- |
| C[C@H]1CN(CC(=O)N2CCC(CN3CCC(c4ccc5c(c4)n(C)c(=O)n5C4CCC(=O)NC4=O)CC3)CC2)CCCN1c1nccc(-c2noc([C@@]3(C)CCCc4sc(N)c(C#N)c43)n2)n1 (stereo partly shown) [Compound 210] | KRAS G12V (Homo sapiens, UniProt P01116, G12V) | > 0.1 µM |
| C#Cc1c(F)ccc2cc(O)cc(-c3ncc4c(N5CCC[C@@](C)(O)C5)nc(OC[C@@]56CCCN5[C@H](COC(=O)N5CCC57CCN(C5CCN(c8ccc9c(c8)n(C)c(=O)n9C8CCC(=O)NC8=O)CC5)CC7)CC6)nc4c3F)c12 (stereo partly shown) [Compound 326] | KRAS G12V (Homo sapiens, UniProt P01116, G12V) | > 0.1 µM |
| C#Cc1c(F)ccc2cc(O)cc(-c3ccc4c(N5CCC[C@@](C)(O)C5)nc(OCC5(CN6CCC(CN7CCN(c8ccc9c(c8)n(C)c(=O)n9C8CCC(=O)NC8=O)CC7)CC6)CC5)nc4c3F)c12 (stereo partly shown) [Compound 12] | KRAS G12V (Homo sapiens, UniProt P01116, G12V) | > 0.1 µM |

Consider the record given below.
Lookup result for C#Cc1c(F)ccc2cc(O)cc(-c3ncc4c(N5CCC[C@@](C)(O)C5)nc(OCC5(CN6CCC7(CC6)CC(N6CCN(c8ccc9c(c8)n(C)c(=O)n9C8CCC(=O)NC8=O)CC6)C7)CC5)nc4c3F)c12 (stereo partly shown) [Compound 56] ; measured DC50: < 0.01 µM

---

- SYSTEM_NAME: KRAS G12D (Homo sapiens, UniProt P01116, G12D)
- Construct: AsPc-1-KRAS (G12D)-HiBit-KI cell (Pharmaron); host or cells: AsPc-1-KRAS (G12D)-HiBit-KI cells (HiBiT knock-in at the endogenous KRAS locus)
- Sequence (P01116 1-188 isoform P01116-2 G12D): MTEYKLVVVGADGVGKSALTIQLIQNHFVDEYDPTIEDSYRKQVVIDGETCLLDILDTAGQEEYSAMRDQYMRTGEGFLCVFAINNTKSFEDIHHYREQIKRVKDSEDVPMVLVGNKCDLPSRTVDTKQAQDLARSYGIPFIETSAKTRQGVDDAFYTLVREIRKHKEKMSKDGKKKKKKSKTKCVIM
- ASSAY_OVERVIEW: KRAS G12D HiBit assay
- Format: cell-based
- CONDITION_CONTEXT: AsPc-1-KRAS (G12D)-HiBit-KI cell, compound treatment for 24 hours, absolute DC50; numeric bounds given in place of class symbols
Would you mind telling me the reported DC50 of each entry?

| MOLECULE | SYSTEM_NAME | MEASURED_VALUE |
| --- | --- | --- |
| CCc1c(F)ccc2cc(O)cc(-c3ncc4c(N5CC[C@H](O)C5)nc(OC[C@@]56CCCN5[C@H](COC(=O)N5CCC7(CC5)CC(N5CCC(c8ccc9c(c8)n(C)c(=O)n9C8CCC(=O)NC8=O)CC5)C7)CC6)nc4c3F)c12 (stereo partly drawn) | KRAS G12D (Homo sapiens, UniProt P01116, G12D) | > 0.1 µM |
| CCc1c(F)ccc2cc(O)cc(-c3ncc4c(N5CCC[C@@](C)(O)C5)nc(OC[C@]56CCCN5[C@H](COC(=O)NC5CCCN(c7cccc8c7n(C)c(=O)n8C7CCC(=O)NC7=O)C5)CC6)nc4c3F)c12 (stereo partly drawn) | KRAS G12D (Homo sapiens, UniProt P01116, G12D) | > 0.1 µM |
| CCc1c(F)ccc2cc(O)cc(-c3ncc4c(N5CCC[C@@](C)(O)C5)nc(OC[C@@]56CCCN5[C@@H](COC(=O)N5CCC(Oc7cccc8c7n(C)c(=O)n8C7CCC(=O)NC7=O)CC5)CC6)nc4c3F)c12 (stereo partly drawn) | KRAS G12D (Homo sapiens, UniProt P01116, G12D) | > 0.1 µM |
| C#Cc1c(F)ccc2cccc(-c3ncc4c(N5CCC[C@@](C)(O)C5)nc(OC[C@]56CCCN5[C@H](COC(=O)N5CCC(CN7CCC(c8ccc9c(c8)n(C)c(=O)n9C8CCC(=O)NC8=O)CC7)CC5)CC6)nc4c3F)c12 (stereo partly drawn) | KRAS G12D (Homo sapiens, UniProt P01116, G12D) | > 0.1 µM |
| CCc1c(F)ccc2cc(O)cc(-c3ncc4c(N5CCC[C@@](C)(O)C5)nc(OC[C@@]56CCCN5[C@H](COC(=O)N5CCC(C#Cc7ccc8c(c7)n(C)c(=O)n8C7CCC(=O)NC7=O)CC5)CC6)nc4c3F)c12 (stereo partly drawn) | KRAS G12D (Homo sapiens, UniProt P01116, G12D) | > 0.1 µM |
| CCc1c(F)ccc2cc(O)cc(-c3ncc4c(N5CCC[C@@](C)(O)C5)nc(OC[C@@]56CCCN5C(COCCCN5CCC(c7ccc8c(c7)n(C)c(=O)n8C7CCC(=O)NC7=O)CC5)CC6)nc4c3F)c12 (stereo partly drawn) | KRAS G12D (Homo sapiens, UniProt P01116, G12D) | > 0.1 µM |
| C#Cc1c(F)ccc2cccc(-c3ncc4c(N5CCC[C@@](C)(O)C5)nc(OC5CCN(CC(=O)N6CCC7(CC6)CC(N6CCC(c8ccc9c(c8)n(C)c(=O)n9C8CCC(=O)NC8=O)CC6)C7)CC5)nc4c3F)c12 (stereo partly drawn) | KRAS G12D (Homo sapiens, UniProt P01116, G12D) | > 0.1 µM |
| CCc1c(F)ccc2cc(O)cc(-c3ncc4c(N5CCC[C@H](N)C5)nc(OC[C@@]56CCCN5[C@H](COC(=O)N5CCC7(CC5)CC(N5CCC(c8ccc9c(c8)n(C)c(=O)n9C8CCC(=O)NC8=O)CC5)C7)CC6)nc4c3F)c12 (stereo partly drawn) | KRAS G12D (Homo sapiens, UniProt P01116, G12D) | > 0.1 µM |

Entry CCc1c(F)ccc2cc(O)cc(-c3ncc4c(N5CCC[C@@](C)(O)C5)nc(OC[C@@]56CCCN5[C@H](COC(=O)N5CCC(C)(CN7CCC(c8ccc9c(c8)n(C)c(=O)n9C8CCC(=O)NC8=O)CC7)CC5)CC6)nc4c3F)c12 (stereo partly drawn) ; DC50 = > 0.1 µM
